- Test system: Zea mays
- Experiment: Post-emergence herbicidal activity, ZEAMX
- Type: in vivo
- Protocol conditions: application post-emergence, 1000 g/Ha, evaluated after 13 days, scale 0-5
Quick rule for you: ZEAMX damage score under 4 gets criterion met, anything else gets criterion not met.

Molecule | Label value
COC(C)(C)c1cc(N2C(=O)N(C)C(C)C2O)nn1C (stereo not shown) | criterion met
CCOC1C(O)N(c2cc(C(C)(C)C)n(C)n2)C(=O)N1C (stereo not shown) | criterion not met
CC1NC(=O)N(c2cc(C(C)(C)C)n(C)n2)C1O (stereo not shown) | criterion met
CON1C(=O)N(c2cc(C(F)(F)F)n(C)n2)C(O)C1C (stereo not shown) | criterion not met
COC(C)(C)c1cc(N2C(=O)N(C)CC2O)nn1C (stereo not shown) | criterion met
C[C@@H]1C(O)N(c2cc(C(F)(F)F)n(C)n2)C(=O)N1C (stereo partly shown) | criterion not met
CON1C(=O)N(c2cc3n(n2)CCC3(C)C)C(O)C1C (stereo not shown) | criterion not met

----------
- Test system: Zea mays
- Experiment: Post-emergence herbicidal activity, ZEAMX
- Type: in vivo
- Protocol conditions: application post-emergence, 1000 g/Ha, evaluated after 13 days, scale 0-5

Molecule | ZEAMX damage score
CON1C(=O)N(c2cc(C(C)(C)C)n(C)n2)C(O)C1C (stereo not shown) | 4
CC1C(O)N(c2cc(C(F)(F)F)n(C)n2)C(=O)N1C (stereo not shown) | 4
CON1C(=O)N(c2cc(C(C)(C)OC)n(C)n2)C(O)C1C (stereo not shown) | 3
CC1C(O)N(c2nn(C)c(C(C)(C)C)c2C#N)C(=O)N1C (stereo not shown) | 2

----------
- System: Alopecurus myosuroides
- Experiment: Post-emergence herbicidal activity, ALOMY
- Assay type: in vivo
- Protocol conditions: application post-emergence, 1000 g/Ha, evaluated after 13 days, scale 0-5
Value type: ALOMY damage score

Compound | Recorded result
CC1C(O)N(c2cc(C(C)(C)C)n(C)n2)C(=O)N1C (stereo not shown) | 4
CCOC1C(O)N(c2cc(C(F)(F)F)n(C)n2)C(=O)N1C (stereo not shown) | 5
CON1C(=O)N(c2cc(C(F)(F)F)n(C)n2)C(O)C1C (stereo not shown) | 5
CC1C(O)N(c2cc(C(F)(F)F)n(C)n2)C(=O)N1C (stereo not shown) | 5

----------
- Tested on: Echinochloa crus-galli
- Experiment: Pre-emergence herbicidal activity, ECHCG
- Type: in vivo
- Protocol conditions: application pre-emergence, 1000 g/Ha, evaluated after 13 days, scale 0-5
Catalogue of ECHCG damage score readings, one per entry.
Value type: ECHCG damage score

Compound | Subject of test | Recorded result
CON1C(=O)N(c2cc(C(C)(C)OC)n(C)n2)C(O)C1C (stereo not shown) [Compound A19] | Echinochloa crus-galli | 4
CC1C(O)N(c2cc(C(C)(C)C)n(C)n2)C(=O)N1C (stereo not shown) [Compound A7] | Echinochloa crus-galli | 4
CCOC1C(O)N(c2cc(C(F)(F)F)n(C)n2)C(=O)N1C (stereo not shown) [Compound A8] | Echinochloa crus-galli | 5
CN1CC(O)N(c2nn(C)c(C(C)(C)C)c2C#N)C1=O (stereo not shown) [Compound A5] | Echinochloa crus-galli | 0
CN1CC(O)N(c2cc(C(F)(F)F)n(C)n2)C1=O (stereo not shown) [Compound A13] | Echinochloa crus-galli | 5
CON1C(=O)N(c2cc(C(C)(C)C)n(C)n2)C(O)C1C (stereo not shown) [Compound A3] | Echinochloa crus-galli | 4
CC1C(O)N(c2cc(C(F)(F)F)n(C)n2)C(=O)N1C (stereo not shown) [Compound A2] | Echinochloa crus-galli | 4
COCC1C(O)N(c2cc(C(C)(C)OC)n(C)n2)C(=O)N1C (stereo not shown) [Compound A21] | Echinochloa crus-galli | 4
CC1NC(=O)N(c2cc(C(C)(C)C)n(C)n2)C1O (stereo not shown) [Compound A17] | Echinochloa crus-galli | 4
CON1C(=O)N(c2cc(C(F)(F)F)n(C)n2)C(O)C1C (stereo not shown) [Compound A4] | Echinochloa crus-galli | 4
CC1C(O)N(c2nn(C)c(C(C)(C)C)c2C#N)C(=O)N1C (stereo not shown) [Compound A6] | Echinochloa crus-galli | 2
COCC1C(O)N(c2cc(C(C)(C)C)n(C)n2)C(=O)N1C (stereo not shown) [Compound A22] | Echinochloa crus-galli | 1
COC(C)(C)c1cc(N2C(=O)N(C)C(C)C2O)nn1C (stereo not shown) [Compound A20] | Echinochloa crus-galli | 4
CON1C(=O)N(c2cc3n(n2)CCC3(C)C)C(O)C1C (stereo not shown) [Compound A1] | Echinochloa crus-galli | 5
CN1CC(O)N(c2cc3n(n2)CCC3(C)C)C1=O (stereo not shown) [Compound A14] | Echinochloa crus-galli | 4
C[C@@H]1C(O)N(c2cc(C(F)(F)F)n(C)n2)C(=O)N1C (stereo partly shown) [Compound A15] | Echinochloa crus-galli | 2
COC(C)(C)c1cc(N2C(=O)N(C)CC2O)nn1C (stereo not shown) [Compound A18] | Echinochloa crus-galli | 4
CCOC1C(O)N(c2cc(C(C)(C)C)n(C)n2)C(=O)N1C (stereo not shown) [Compound A10] | Echinochloa crus-galli | 5
CN1C(=O)N(c2cc(C(F)(F)F)n(C)n2)C(O)C1O (stereo not shown) [Compound A12] | Echinochloa crus-galli | 4

----------
- Test system: Abutilon theophrasti
- Experiment: Pre-emergence herbicidal activity, ABUTH
- Format: in vivo
- Set-up: key: 5=total damage to plant; 0=no damage to plant
- Protocol conditions: application pre-emergence, 1000 g/Ha, evaluated after 13 days, scale 0-5
Entries and their ABUTH damage score

Compound | ABUTH damage score
CON1C(=O)N(c2cc(C(C)(C)C)n(C)n2)C(O)C1C (stereo not shown) | 5
COCC1C(O)N(c2cc(C(C)(C)C)n(C)n2)C(=O)N1C (stereo not shown) | 5
CON1C(=O)N(c2cc3n(n2)CCC3(C)C)C(O)C1C (stereo not shown) | 5
CC1C(O)N(c2cc(C(F)(F)F)n(C)n2)C(=O)N1C (stereo not shown) | 5
CCOC1C(O)N(c2cc(C(C)(C)C)n(C)n2)C(=O)N1C (stereo not shown) | 5
CON1C(=O)N(c2cc(C(C)(C)OC)n(C)n2)C(O)C1C (stereo not shown) | 5
CN1CC(O)N(c2nn(C)c(C(C)(C)C)c2C#N)C1=O (stereo not shown) | 2
CCOC1C(O)N(c2cc(C(F)(F)F)n(C)n2)C(=O)N1C (stereo not shown) | 5
COC(C)(C)c1cc(N2C(=O)N(C)C(C)C2O)nn1C (stereo not shown) | 5
COCC1C(O)N(c2cc(C(C)(C)OC)n(C)n2)C(=O)N1C (stereo not shown) | 5
CC1C(O)N(c2nn(C)c(C(C)(C)C)c2C#N)C(=O)N1C (stereo not shown) | 5
CON1C(=O)N(c2cc(C(F)(F)F)n(C)n2)C(O)C1C (stereo not shown) | 5
COC(C)(C)c1cc(N2C(=O)N(C)CC2O)nn1C (stereo not shown) | 5
CC1NC(=O)N(c2cc(C(C)(C)C)n(C)n2)C1O (stereo not shown) | 4
CC1C(O)N(c2cc(C(C)(C)C)n(C)n2)C(=O)N1C (stereo not shown) | 4
CN1C(=O)N(c2cc(C(F)(F)F)n(C)n2)C(O)C1O (stereo not shown) | 5
CN1CC(O)N(c2cc(C(F)(F)F)n(C)n2)C1=O (stereo not shown) | 5
C[C@@H]1C(O)N(c2cc(C(F)(F)F)n(C)n2)C(=O)N1C (stereo partly shown) | 5
CN1CC(O)N(c2cc3n(n2)CCC3(C)C)C1=O (stereo not shown) | 5

----------
- System: Amaranthus retroflexus
- Experiment: Pre-emergence herbicidal activity, AMARE
- Format: in vivo
- Set-up: key: 5=total damage to plant; 0=no damage to plant
- Protocol conditions: application pre-emergence, 1000 g/Ha, evaluated after 13 days, scale 0-5
- Protocol: Seeds of a variety of test species were sown in standard soil in pots. […] After 13 days, the test was evaluated (5=total damage to plant; 0=no damage to plant).
This section presents compounds with their documented AMARE damage score values.

Compound | Subject of test | AMARE damage score
COC(C)(C)c1cc(N2C(=O)N(C)C(C)C2O)nn1C (stereo not shown) | Amaranthus retroflexus | 5
CN1CC(O)N(c2cc3n(n2)CCC3(C)C)C1=O (stereo not shown) | Amaranthus retroflexus | 5
CC1C(O)N(c2cc(C(C)(C)C)n(C)n2)C(=O)N1C (stereo not shown) | Amaranthus retroflexus | 5
CCOC1C(O)N(c2cc(C(C)(C)C)n(C)n2)C(=O)N1C (stereo not shown) | Amaranthus retroflexus | 5
CON1C(=O)N(c2cc3n(n2)CCC3(C)C)C(O)C1C (stereo not shown) | Amaranthus retroflexus | 5
CN1CC(O)N(c2cc(C(F)(F)F)n(C)n2)C1=O (stereo not shown) | Amaranthus retroflexus | 5
CON1C(=O)N(c2cc(C(C)(C)OC)n(C)n2)C(O)C1C (stereo not shown) | Amaranthus retroflexus | 5
CN1CC(O)N(c2nn(C)c(C(C)(C)C)c2C#N)C1=O (stereo not shown) | Amaranthus retroflexus | 4
CC1C(O)N(c2nn(C)c(C(C)(C)C)c2C#N)C(=O)N1C (stereo not shown) | Amaranthus retroflexus | 2
CC1NC(=O)N(c2cc(C(C)(C)C)n(C)n2)C1O (stereo not shown) | Amaranthus retroflexus | 5
